biological target: β-secretase (BACE) (Homo sapiens, UniProt P56817); construct: purchased Panvera; experiment: BACE FS1 % Inhibition Assay; format: biochemical; settings: 0.3 μM test compound; read-out: % Inhibition (FS)
Sequence (P56817 46-501): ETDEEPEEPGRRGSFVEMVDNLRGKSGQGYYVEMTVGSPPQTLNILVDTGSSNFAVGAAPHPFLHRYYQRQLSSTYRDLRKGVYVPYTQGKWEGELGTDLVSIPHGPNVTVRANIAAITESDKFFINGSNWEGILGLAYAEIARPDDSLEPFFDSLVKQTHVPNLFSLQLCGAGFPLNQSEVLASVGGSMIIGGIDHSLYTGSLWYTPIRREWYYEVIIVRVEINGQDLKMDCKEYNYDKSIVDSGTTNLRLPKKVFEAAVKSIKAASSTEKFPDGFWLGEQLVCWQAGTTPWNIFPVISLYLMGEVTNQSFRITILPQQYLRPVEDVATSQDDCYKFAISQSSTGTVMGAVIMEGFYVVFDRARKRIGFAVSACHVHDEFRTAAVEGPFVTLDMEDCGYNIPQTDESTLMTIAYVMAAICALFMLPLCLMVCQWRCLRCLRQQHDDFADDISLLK
readout name: inhibition at 0.3 µM (%)

Known inhibition at 0.3 µM results, listed for orientation:
compound	unit	recorded result
NC1=Nc2ccc(Oc3ccccc3)cc2CN1C(CNC(=O)C1CCCC1)C1CCCCC1 (stereo not shown)	%	79
COc1ccccc1-c1ccc2c(c1)CN([C@@H](CCC(=O)N(C)C1CCCCC1)C1CCCCC1)C(N)=N2	%	106

P = CC(C)C(CNC(=O)C12CC3CC(CC(C3)C1)C2)N1Cc2cc(Oc3ccccc3)ccc2N=C1N (stereo not shown)
Q = NC1=Nc2ccc(-c3ccccc3)cc2CN1CCNC(=O)Cc1ccccc1
Response body: label of entry with the larger inhibition at 0.3 µM; valid values P , Q . Mark your answer with the label of the selected entry.
P

Reference source for all entries: patent US8426429B2
